measurement-target: UniProt Q9NR97
procedure-summary: Antagonist activity at TLR8 expressed in HEK293 cells co-transfected with NF-kappaB/sAP gene assessed as inhibition of CL075-induced NF-kappaB activation by reporter gene assay
parameter-measured: IC50 (µM)

Would you please look over these solved cases?
C#CCn1c(CNCC)nc2c3ccccc3ncc21    28.1
CCNCc1nc2c3ccccc3nc(NC(=O)c3ccccc3)c2n1CC(C)(C)O    21.2
CC(C)(O)Cn1c(-c2ccccc2)nc2c3ccccc3ncc21    38.4

A = CC(C)(O)Cn1c(C2CCCCC2)nc2c3ccccc3ncc21
B = OCCCn1c(C2CCCCC2)nc2c3ccccc3ncc21
C = CCNCc1nc2c3ccccc3ncc2n1Cc1ccc(OC)cc1
[in] rank_up(items): orders items by reported IC50 in ascending numerical order. Write out the labels following the order that was asked for.
[out] B, A, C

====

measurement-target: UniProt:Q9NYK1
Sequence (Q9NYK1 whole entry): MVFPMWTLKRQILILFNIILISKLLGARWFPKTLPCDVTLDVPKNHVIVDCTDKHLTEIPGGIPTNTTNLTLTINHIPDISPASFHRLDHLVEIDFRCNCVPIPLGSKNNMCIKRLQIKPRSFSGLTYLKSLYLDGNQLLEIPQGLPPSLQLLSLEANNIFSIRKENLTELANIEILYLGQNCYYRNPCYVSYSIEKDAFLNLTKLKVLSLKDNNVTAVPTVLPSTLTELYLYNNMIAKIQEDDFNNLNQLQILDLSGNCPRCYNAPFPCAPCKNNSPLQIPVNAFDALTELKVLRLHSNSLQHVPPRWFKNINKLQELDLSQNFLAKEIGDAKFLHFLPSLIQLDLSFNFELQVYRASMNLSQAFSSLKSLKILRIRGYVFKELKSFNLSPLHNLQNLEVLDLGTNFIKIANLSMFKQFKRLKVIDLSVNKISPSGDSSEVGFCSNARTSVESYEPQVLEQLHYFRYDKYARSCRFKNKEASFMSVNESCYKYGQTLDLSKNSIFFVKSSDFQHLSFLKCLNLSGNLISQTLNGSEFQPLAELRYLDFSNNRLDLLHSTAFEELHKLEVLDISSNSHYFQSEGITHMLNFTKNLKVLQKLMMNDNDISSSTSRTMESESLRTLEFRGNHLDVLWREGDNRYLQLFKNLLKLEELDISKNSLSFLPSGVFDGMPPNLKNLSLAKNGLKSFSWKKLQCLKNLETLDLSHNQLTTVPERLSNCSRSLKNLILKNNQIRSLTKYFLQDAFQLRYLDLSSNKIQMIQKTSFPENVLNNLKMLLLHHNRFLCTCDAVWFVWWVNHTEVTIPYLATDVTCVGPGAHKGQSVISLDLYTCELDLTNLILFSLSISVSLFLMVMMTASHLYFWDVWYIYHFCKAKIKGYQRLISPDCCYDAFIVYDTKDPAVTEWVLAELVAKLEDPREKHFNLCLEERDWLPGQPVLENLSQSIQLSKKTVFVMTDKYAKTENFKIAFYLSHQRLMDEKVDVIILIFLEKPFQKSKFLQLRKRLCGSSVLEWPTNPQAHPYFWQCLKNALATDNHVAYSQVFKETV
procedure-summary: Antagonist activity at TLR7 expressed in HEK293 cells co-transfected with NF-kappaB/sAP gene assessed as inhibition of 250 ng/ml of gardiquimod-induced NF-kappaB activation by reporter gene assay
parameter-measured: pIC50
// pIC50 is dimensionless: -log10 of concentration (M)

[in] Give the measured pIC50 of COc1ccc(Cn2c(-c3ccccc3)nc3c4ccccc4[n+](Cc4ccc(OC)cc4)cc32)cc1 .
[out] 6.09

====

measurement-target: Toll-like receptor 8 (Homo sapiens, UniProt Q9NR97)
Sequence (Q9NR97 whole entry): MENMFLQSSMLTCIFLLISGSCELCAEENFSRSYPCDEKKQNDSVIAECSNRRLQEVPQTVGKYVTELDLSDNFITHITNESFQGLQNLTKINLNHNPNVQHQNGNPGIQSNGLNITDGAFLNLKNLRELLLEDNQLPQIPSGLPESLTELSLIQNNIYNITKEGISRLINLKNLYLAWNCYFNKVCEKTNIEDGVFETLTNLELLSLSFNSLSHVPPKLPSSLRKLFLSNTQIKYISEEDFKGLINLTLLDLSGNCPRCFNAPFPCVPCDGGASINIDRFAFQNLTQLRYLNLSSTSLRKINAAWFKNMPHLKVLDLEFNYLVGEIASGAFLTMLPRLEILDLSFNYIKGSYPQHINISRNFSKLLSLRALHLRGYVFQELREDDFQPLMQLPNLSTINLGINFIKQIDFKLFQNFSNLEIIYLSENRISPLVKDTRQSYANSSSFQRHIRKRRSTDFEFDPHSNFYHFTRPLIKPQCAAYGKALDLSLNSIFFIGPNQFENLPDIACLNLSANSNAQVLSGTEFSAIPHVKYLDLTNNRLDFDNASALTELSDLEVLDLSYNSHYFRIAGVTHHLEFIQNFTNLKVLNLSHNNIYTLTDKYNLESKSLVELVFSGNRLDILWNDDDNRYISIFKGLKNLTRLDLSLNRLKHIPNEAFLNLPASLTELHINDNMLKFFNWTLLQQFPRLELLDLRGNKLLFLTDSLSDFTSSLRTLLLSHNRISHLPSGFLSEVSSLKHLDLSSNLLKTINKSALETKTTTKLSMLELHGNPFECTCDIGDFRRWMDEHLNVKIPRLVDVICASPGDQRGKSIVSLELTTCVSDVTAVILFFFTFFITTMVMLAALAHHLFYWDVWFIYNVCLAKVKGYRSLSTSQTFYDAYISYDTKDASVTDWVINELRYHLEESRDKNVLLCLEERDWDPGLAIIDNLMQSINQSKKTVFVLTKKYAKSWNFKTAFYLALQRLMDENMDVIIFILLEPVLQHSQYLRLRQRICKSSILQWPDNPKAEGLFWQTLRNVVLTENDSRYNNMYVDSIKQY
procedure-summary: Antagonist activity at TLR8 expressed in HEK293 cells co-transfected with NF-kappaB/sAP gene assessed as inhibition of CL075-induced NF-kappaB activation by reporter gene assay
Format: functional, cell-based
parameter-measured: IC50 (µM)

Here is how some compounds turned out for IC50.
OCCCn1c(-c2ccccc2)nc2c3ccccc3ncc21    37.2
COc1ccc(Cn2c(-c3ccccc3)nc3c4ccccc4[n+](Cc4ccc(OC)cc4)cc32)cc1    4.55

P = C#CCn1c(CCCCCCCCC)nc2c3ccccc3ncc21
Q = CCNCc1nc2c3ccccc3[n+]([O-])cc2n1CC(C)(C)O
R = Cn1c(-c2ccccc2)nc2c3ccccc3ncc21
S = CCCCCCCCCc1nc2c3ccccc3ncc2n1CCCO
[in] // sort entries: IC50, high to low Sort the labels as requested; that list is your answer.
[out] Q, R, P, S
(Q: 46.5 µM, R: 25.8 µM, P: 10.1 µM, S: 4.81 µM)

I = COc1ccc(Cn2c(C3CCCCC3)nc3c4ccccc4ncc32)cc1
II = C#CCn1c(C2CCCCC2)nc2c3ccccc3ncc21
III = C#CCn1c(-c2ccccc2)nc2c3ccccc3ncc21
[in] Could you please order the items by IC50, going from the lowest number to the highest? Quick reminder: the answer is the labels in the order asked.
[out] III, II, I
(III: 13.7 µM, II: 21.1 µM, I: 40 µM)
